# Measurement Description: Caspase-3/7 induction in HepG2 cells by small molecules, qHTS assay (AID 1346978); also: nearly all actives have a fitted effect of over 15% in size
# Test Conditions: HepG2 caspase-3/7 activation, Caspase-Glo luminescence, 17 h; series mostly up to 92.4 µM
Results filed as inconclusive are left out. Calls of active or inactive are those of the source. Calls follow the shape of the dose curve; as a rule, active = well fitted activation curve with a large enough effect in the repeat runs; inconclusive = weak or mixed curves; inactive = flat fitted curve, though single readings scatter.
Classes used: active, inactive

- Compound: "CCN(CC)c1ccc2c(-c3ccc(S(=O)(=O)O)cc3S(=O)(=O)[O-])c3ccc(=[N+](CC)CC)cc-3oc2c1"
  Class: "inactive"
- Compound: "O=C1C(c2[nH]c3ccc(S(=O)(=O)O)cc3c2O)=Nc2ccc(S(=O)(=O)O)cc21"
  Class: "inactive"
- Compound: "CCCCCCCCCCCCOC(=O)c1ccc(O)cc1"
  Class: "active"
- Compound: "O=C(O)CCN(C1(C(=O)NO)CCCC1)S(=O)(=O)c1ccc(Oc2ccc(F)cc2)cc1"
  Class: "inactive"
- Compound: "O=C(O)c1cc(=O)c2ccccc2o1"
  Class: "inactive"
- Compound: "CCC(C)(CCC(C)C)C(=O)[O][Sn]([CH3])([CH3])[O]C(=O)C(C)(CC)CCC(C)C (stereo unspecified)"
  Class: "inactive"
- Compound: "OC[C@@H](O)[C@@H](O)CO"
  Class: "inactive"
- Compound: "COC(=O)C1=C(C)NC(C)=C(C(=O)OCCN2CCN(C(c3ccccc3)c3ccccc3)CC2)C1c1cccc([N+](=O)[O-])c1 (stereo unspecified)"
  Class: "inactive"
- Compound: "CCCCOC(=O)CC"
  Class: "inactive"
- Compound: "CCN(CCN)c1cccc(C)c1"
  Class: "inactive"
- Compound: "Cc1ccc(O)c(N)c1"
  Class: "inactive"

====

# System: Progesterone receptor (Homo sapiens) (UniProt P06401)
# Sequence (P06401 whole entry, looked up): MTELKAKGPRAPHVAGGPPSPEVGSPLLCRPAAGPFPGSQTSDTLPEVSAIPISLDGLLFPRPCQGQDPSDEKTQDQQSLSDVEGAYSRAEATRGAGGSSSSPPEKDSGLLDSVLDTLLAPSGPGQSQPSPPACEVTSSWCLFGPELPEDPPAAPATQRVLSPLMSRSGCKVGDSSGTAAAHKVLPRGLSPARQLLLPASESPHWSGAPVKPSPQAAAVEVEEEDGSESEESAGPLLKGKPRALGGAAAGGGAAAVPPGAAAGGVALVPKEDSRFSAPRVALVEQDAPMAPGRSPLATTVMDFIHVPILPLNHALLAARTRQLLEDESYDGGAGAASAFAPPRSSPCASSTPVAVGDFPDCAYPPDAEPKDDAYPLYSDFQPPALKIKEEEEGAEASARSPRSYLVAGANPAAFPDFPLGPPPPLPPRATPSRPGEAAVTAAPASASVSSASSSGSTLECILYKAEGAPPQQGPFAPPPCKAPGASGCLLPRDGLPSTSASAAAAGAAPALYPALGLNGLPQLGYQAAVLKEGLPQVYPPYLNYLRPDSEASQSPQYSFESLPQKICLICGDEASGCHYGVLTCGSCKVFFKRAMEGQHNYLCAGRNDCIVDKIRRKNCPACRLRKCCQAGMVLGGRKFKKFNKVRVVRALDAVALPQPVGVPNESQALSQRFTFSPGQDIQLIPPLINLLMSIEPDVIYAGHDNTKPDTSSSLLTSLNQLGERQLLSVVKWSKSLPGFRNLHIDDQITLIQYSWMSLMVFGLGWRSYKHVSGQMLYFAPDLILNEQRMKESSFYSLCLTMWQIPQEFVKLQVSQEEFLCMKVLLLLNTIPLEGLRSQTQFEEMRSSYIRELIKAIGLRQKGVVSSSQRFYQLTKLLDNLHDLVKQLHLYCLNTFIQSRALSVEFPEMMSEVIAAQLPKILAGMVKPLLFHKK
# Measurement Description: qHTS assay to identify small molecule agonists of the progesterone receptor (PR) signaling pathway (AID 1346784); also: nearly all actives have a fitted effect of over 30% in size
# Test Conditions: PR-UAS-bla HEK293T, beta-lactamase FRET ratio, 16 h; series mostly up to 92.4 µM
Results filed as inconclusive are left out. The source made the active and inactive calls. The call rests on the fitted dose curve.
Possible outcomes: active, inactive

- Compound: "COC(=O)c1ccccc1OC"
  Class: "inactive"
- Compound: "CC[N+](CC)(CC)CCOc1ccc(/C=C/c2ccccc2)cc1"
  Class: "inactive"
- Compound: "CC[N+](CC)(CC)CCOC(=O)C(C1CCCC1)C1CCCC1"
  Class: "inactive"
- Compound: "CCCCCCCCCCC[C@@H](C[C@@H]1OC(=O)[C@H]1CCCCCC)OC(=O)[C@H](CC(C)C)NC=O"
  Class: "inactive"
- Compound: "CCCC(=O)OCCc1ccccc1"
  Class: "inactive"
- Compound: "CC(C)CCCCCOC(=O)CCS"
  Class: "inactive"
- Compound: "Cc1cc(C)c(/C=C2\\C(=O)Nc3ccccc32)[nH]1"
  Class: "inactive"
- Compound: "C#C[C@]1(OC(C)=O)CC[C@H]2[C@@H]3CCC4=C[C@@H](OC(C)=O)CC[C@@H]4[C@H]3CC[C@@]21C"
  Class: "active"
- Compound: "O=C(O)c1cc(O)c2ccccc2c1O"
  Class: "inactive"
- Compound: "Cc1c(C)c2c(c(C)c1OC(=O)c1cccnc1)CC[C@@](C)(CCC[C@H](C)CCC[C@H](C)CCCC(C)C)O2"
  Class: "inactive"
- Compound: "CC(C)=CCC1=C(O)c2ccccc2C(=O)C1=O"
  Class: "inactive"
- Compound: "CCCNCCC"
  Class: "inactive"
- Compound: "CC(C)=CCNc1ncnc2c1ncn2[C@@H]1O[C@H](CO)[C@@H](O)[C@H]1O"
  Class: "inactive"
- Compound: "C=CC(=O)Nc1cc2c(Nc3ccc(F)c(Cl)c3)ncnc2cc1OCCCN1CCOCC1"
  Class: "inactive"
- Compound: "CC1(C)CC(O)CC(C)(C)N1"
  Class: "inactive"
- Compound: "Cc1cccc(C(=O)O)c1O"
  Class: "inactive"
- Compound: "CCCCOC(=O)CO"
  Class: "inactive"
- Compound: "O=C(O)c1cc(-c2ccc(F)cc2F)ccc1O"
  Class: "inactive"
- Compound: "OC1CCCc2ccccc21 (stereo not given)"
  Class: "inactive"
- Compound: "O=C(O)Cc1ccccc1Nc1c(Cl)cccc1Cl"
  Class: "inactive"
- Compound: "CCc1ccc(Br)cc1"
  Class: "inactive"
- Compound: "CCOc1ccc2ccccc2c1C(=O)N[C@@H]1C(=O)N2[C@@H]1SC(C)(C)[C@@H]2C(=O)O"
  Class: "inactive"
- Compound: "ClCCl"
  Class: "inactive"
- Compound: "CN1CCCCC1CCN1c2ccccc2Sc2ccc(S(C)=O)cc21 (stereo not given)"
  Class: "inactive"
- Compound: "CCN(CC)c1ccc2c(-c3ccc(S(=O)(=O)O)cc3S(=O)(=O)[O-])c3ccc(=[N+](CC)CC)cc-3oc2c1"
  Class: "inactive"

Data origin: PubChem BioAssay (Tox21)
